- experiment_description: Plasma stability, human
- Assay type: in vitro ADME
- recorded_conditions: 2 μM
experimental_readout: Human (% Reamining @2 hour) (%)
Output spec: scalar in %, unitless text.

// solved cases for Human (% Reamining @2 hour) follow
> print(dat)
                    structure.smiles.string  readout.unit  experimental.value
1  C#CCNCc1c(Cc2cccc(NS(=O)(=O)NC)c2F)c(=O)oc2cc(OC(=O)N(C)C)ccc12             %                96.0
2  CNS(=O)(=O)Nc1cccc(Cc2c(CNCC#N)c3ccc(OC(=O)N(C)C)cc3oc2=O)c1F             %                87.3
3  CC(C)[N+](C)(CCOC(=O)C1c2ccccc2Oc2ccccc21)C(C)C             %                 5.7

Consider now this further molecule.
Query block: For "CNS(=O)(=O)Nc1cccc(Cc2c(CNc3ccn[nH]3)c3ccc(OC(=O)N(C)C)cc3oc2=O)c1F" , what is its reported Human (% Reamining @2 hour)?
Result block: 100.5

###

Overview of reported Tmax across a group of molecules:
- experiment_description: Single dose PK profile (plasma and tumor) in Colon26 tumor bearing mice
- Assay type: in vivo
- recorded_conditions: female, mouse, po, 25 mg/kg; plasma; 25 mpk p.o.
- Protocol: Female mice (either athymic BALC/c nude, or BALB/c mice) were inoculated with a single subcutaneous injection of 0.1 ml of mouse Colon-26 cell suspension (1×10^5 cells per animal) in the right flank region. […]
Output spec: scalar in min, unitless text.

Query block: For "CNS(=O)(=O)Nc1cccc(Cc2c(CN3CCC3)c3ccc(OC(=O)N(C)C)cc3oc2=O)c1F" , what is its reported Tmax?
Result block: 30

Query block: For "CNS(=O)(=O)Nc1cccc(Cc2c(CN(C)C)c3ccc(OC(=O)N(C)C)cc3oc2=O)c1F" , what is its reported Tmax?
Result block: 30

###

- experiment_description: Pharmacokinetics, single dose, 2-hour tissue levels in Colon26 tumor bearing mice
- Assay type: in vivo
- recorded_conditions: female, athymic BALB/c nude or BALB/c, mouse, tumor, po; single dose 100 mg/kg p.o.; 2-hour post dose; read-out: Tumor
experimental_readout: concentration at 2 h (ng/g)
Output spec: scalar in ng/g, unitless text.

> print(dat)
                                   compound  experimental.readout  readout.unit  experimental.value
1  CNS(=O)(=O)Nc1cccc(Cc2c(CN(C)C)c3ccc(OC(=O)N(C)C)cc3oc2=O)c1F [Compound 9]  concentration at 2 h          ng/g                1350
2  CNS(=O)(=O)Nc1nccc(Cc2c(C)c3ccc(Oc4ncccn4)cc3oc2=O)c1F [Reference 2, reference compound]  concentration at 2 h          ng/g                 819
3  CNS(=O)(=O)Nc1cccc(Cc2c(CNCC#N)c3ccc(OC(=O)N(C)C)cc3oc2=O)c1F [Compound 13]  concentration at 2 h          ng/g                  26

Query block: For C#CCNCc1c(Cc2cccc(NS(=O)(=O)NC)c2F)c(=O)oc2cc(OC(=O)N(C)C)ccc12 [Compound 14] , what is its reported concentration at 2 h?
Result block: 2.68

###

Overview of reported solubility kinetic at 4 h across a group of compounds:
- experiment_description: Kinetic solubility (PBS pH 7.4; 4 hr)
- Assay type: physicochemical
- recorded_conditions: 10 mM PBS buffer, aqueous buffer, kinetic from dmso stock
- Method: The plates were shaken for 4 h at room temperature in an Eppendorf Thermomixer. After incubation, the plates were centrifuged for 20 minutes at 4680 rpm. From the supernatant, 150 uL was transferred to a new 96 well plate and 50 uL DMSO was added to ensure continued dissolution. Samples were measured on LC-UV at injection volumes of 1 and 8 uL. Peak areas were determined and compared to peak areas obtained using calibration curves of the test compounds in DMSO.

> print(dat)
                                   compound  experimental.value
1  CNS(=O)(=O)Nc1nccc(Cc2c(C)c3ccc(Oc4ncccn4)cc3oc2=O)c1F [Reference 2, reference compound]               36 µM
2  CNS(=O)(=O)Nc1cccc(Cc2c(CN3CCC3)c3ccc(OC(=O)N(C)C)cc3oc2=O)c1F [Compound 197]             > 80 µM

Consider now this further compound.
Query block: For CNS(=O)(=O)Nc1cccc(Cc2c(CN(C)C)c3ccc(OC(=O)N(C)C)cc3oc2=O)c1F [Compound 9] , what is its reported solubility kinetic at 4 h?
Result block: > 80 µM

###

Overview of reported Beagle Dog (% Reamining @1 hour) across a group of molecules:
- experiment_description: Microsome stability, beagle dog
- Assay type: in vitro ADME
- recorded_conditions: microsomes, 2 μM
Value and unit, in that order.

> print(dat)
                                   molecule              experimental.readout  experimental.value
1  CNS(=O)(=O)Nc1cccc(Cc2c(CN3CCN(Cc4ccccc4)CC3)c3ccc(OC(=O)N(C)C)cc3oc2=O)c1F [Compound 16]  Beagle Dog (% Reamining @1 hour)                0.4%
2  CNS(=O)(=O)Nc1nccc(Cc2c(C)c3ccc(Oc4ncccn4)cc3oc2=O)c1F [Reference 2, reference compound]  Beagle Dog (% Reamining @1 hour)              111.6%
3  CNS(=O)(=O)Nc1cccc(Cc2c(CN3CCNCC3)c3ccc(OC(=O)N(C)C)cc3oc2=O)c1F [Compound 10]  Beagle Dog (% Reamining @1 hour)               73.9%

Query block: For CNS(=O)(=O)Nc1cccc(Cc2c(CN(C)C)c3ccc(OC(=O)N(C)C)cc3oc2=O)c1F [Compound 9] , what is its reported Beagle Dog (% Reamining @1 hour)?
Result block: 76.5%

###

- Tested on: A549 pERK
- experiment_description: A549-pERK, 2 h (quantitative Western, Jess)
- Format: cell-based
- recorded_conditions: Homo sapiens, A549, 2 h, 10 nM, phospho:total ratio normalized to DMSO control
Threshold 90%: activity at 0.01 µM strictly smaller gives rule met, otherwise rule not met.

Solved cases (5 shown):
> print(dat)
                                   compound  assigned.class
1  CNS(=O)(=O)Nc1nccc(Cc2c(CN3CC(F)(F)C3)c3ccc(OC(=O)N(C)C)cc3oc2=O)c1F [Compound 149]        rule met
2  CNS(=O)(=O)Nc1cccc(Cc2c(CNCc3ccco3)c3ccc(OC(=O)N(C)C)cc3oc2=O)c1F [Compound 56]    rule not met
3  CNS(=O)(=O)Nc1cccc(Cc2c(CN3CCN(C)CC3)c3ccc(OC(=O)N(C)C)cc3oc2=O)c1F [Compound 15]        rule met
4  CNS(=O)(=O)Nc1cccc(Cc2c(CO)c3ccc(OC(=O)N(C)C)cc3oc2=O)c1F [Compound 180]        rule met
5  CNS(=O)(=O)Nc1cccc(Cc2c(CC(=O)N(C)C)c3ccc(OC(=O)N(C)C)cc3oc2=O)c1F [Compound 196]    rule not met

Query block: Strictly below 90% in activity at 0.01 µM? CNS(=O)(=O)Nc1cccc(Cc2c(CN(C)C)c3ccc(OC(=O)N(C)C)cc3oc2=O)c1F [Compound 9]
Result block: rule met

Query block: Strictly below 90% in activity at 0.01 µM? CNS(=O)(=O)Nc1cccc(Cc2c(CNCc3ccncc3)c3ccc(OC(=O)N(C)C)cc3oc2=O)c1F [Compound 29]
Result block: rule not met

Query block: Strictly below 90% in activity at 0.01 µM? CCS(=O)(=O)Nc1cccc(Cc2c(C)c3ccc(OC(=O)N(C)C)cc3oc2=O)c1F [Compound 107]
Result block: rule met

Query block: Strictly below 90% in activity at 0.01 µM? CNS(=O)(=O)Nc1nccc(Cc2c(CN(C)C)c3ccc(OC(=O)N(C)C)cc3oc2=O)c1F [Compound 124]
Result block: rule not met

Query block: Strictly below 90% in activity at 0.01 µM? Cc1c(Cc2cccc(NS(=O)(=O)C3CC3)c2F)c(=O)oc2cc(OC(=O)N(C)C)ccc12 [Compound 113]
Result block: rule met

Query block: Strictly below 90% in activity at 0.01 µM? CNS(=O)(=O)Nc1cccc(Cc2c(CN3CC4(CCC4)C3)c3ccc(OC(=O)N(C)C)cc3oc2=O)c1F [Compound 153]
Result block: rule met

Query block: Strictly below 90% in activity at 0.01 µM? CCN(C)Cc1c(Cc2cccc(NS(=O)(=O)CC)c2F)c(=O)oc2cc(OC(=O)N(C)C)c(Cl)cc12 [Compound 166]
Result block: rule met

Query block: Strictly below 90% in activity at 0.01 µM? CNS(=O)(=O)Nc1cccc(Cc2c(CN3CC(C(N)=O)C3)c3ccc(OC(=O)N(C)C)cc3oc2=O)c1F [Compound 173]
Result block: rule not met

Query block: Strictly below 90% in activity at 0.01 µM? CNS(=O)(=O)Nc1cccc(Cc2c(CNCCN(C)C)c3ccc(OC(=O)N(C)C)cc3oc2=O)c1F [Compound 58]
Result block: rule not met

Hey, just so you know, these numbers are from patent US20250270180A1.
